Provide the reported chromatographic logP of each item.
# Experiment description: logP determination by HPLC on reversed-phase column (EEC Directive 79/831 Annex V.A8)
# Format: physicochemical
# Measurement context: reversed-phase C18 HPLC column, pH 2.3, C18, 43° C., precursors, read-out: HPLC: logP
Give bare numbers.

Known chromatographic logP results, listed for orientation:
CC(C)=CC(C)c1ccccc1N (stereo not shown) :: 1.19
CCC(Cl)CC(C)c1ccccc1N (stereo not shown) :: 2.3
CC1CSC(C(=O)O)=C(C(F)(F)F)O1 (stereo not shown) :: 1.72

Next:
Entry CC1COC(C(F)(F)F)=C(C(=O)O)S1 (stereo not shown) , chromatographic logP reported as 1.69

###

# Tested on: Venturia inaequalis
# Experiment description: Venturia test (apple)/protective
# Assay type: in vivo
# Measurement context: 240 h, apple plants, protective, application rate 100 g/ha, evaluation 10 days after inoculation, read-out: % efficacy
Measurement label: pest or weed control at 100 g/ha (%)
Answers are plain numbers, in %.

Known pest or weed control at 100 g/ha results, listed for orientation:
O=C(Nc1ccccc1-c1ccc(Cl)c(Cl)c1)C1=C(C(F)(F)F)OCCS1 :: 100
CC(C)CC(C)c1ccccc1NC(=O)C1=C(C(F)(F)F)OCCS1 (centres unmarked) :: 100
CC(C)O/N=C/c1ccc(-c2ccccc2NC(=O)C2=C(C(F)(F)F)OCCS2)cc1 :: 100
CC1CC(C)(C)c2cccc(NC(=O)C3=C(C(F)(F)F)OCCS3)c21 (centres unmarked) :: 100

Case `O=C(Nc1ccccc1-c1ccc(C(F)(F)F)cc1)C1=C(C(F)(F)F)OCCS1` , Venturia inaequalis, pest or weed control at 100 g/ha recorded as 88

###

Provide the reported logP of each item.
# Experiment description: logP determination by HPLC on reversed-phase column (EEC Directive 79/831 Annex V.A8)
# Assay type: physicochemical
# Measurement context: Table 1 logP / m.p., C18, 43° C., acidic range (pH 2.3)
Answers are plain numbers.

Answer for every listed entry: what is its logP? The entries follow.
1. O=C(Nc1ccccc1-c1cc(F)cc(Cl)c1)C1=C(C(F)(F)F)OCCS1
2. CC(C)CC(C)c1ccccc1NC(=O)C1=C(C(F)(F)F)OC(C)CS1 (stereo not drawn)

Result:
1: 3.60; 2: 4.27

Answer for every listed entry: what is its logP? The entries follow.
1. CC(C)CC(C)c1ccccc1NC(=O)C1=C(C(F)(F)F)OCC(C)S1 (stereo not drawn)
2. CC(C)(C)CCc1ccccc1NC(=O)C1=C(C(F)(F)F)OCCS1
3. CC(C)ON=Cc1ccc(-c2ccccc2NC(=O)C2=C(C(F)(F)F)OC(C)CS2)cc1 (stereo not drawn)

Result:
[4.24, 3.98, 4.56]

Answer for every listed entry: what is its logP? The entries follow.
1. CC(CC1CC1)c1ccccc1NC(=O)C1=C(C(F)(F)F)OCCS1 (stereo not drawn)
2. CC(CC1CCCCC1)c1ccccc1NC(=O)C1=C(C(F)(F)F)OCCS1 (stereo not drawn)
3. CC(C)CC(C)c1cc(F)ccc1NC(=O)C1=C(C(F)(F)F)OCCS1 (stereo not drawn)
4. CON=C(N)c1ccc(-c2ccccc2NC(=O)C2=C(C(F)(F)F)OCCS2)cc1
5. CC(C)CCc1ccccc1NC(=O)C1=C(C(F)(F)F)OCCS1

Result:
3.72
4.71
3.94
1.96
3.72

###

Provide the reported logP of each item.
# Experiment description: logP determination by HPLC on reversed-phase column (EEC Directive 79/831 Annex V.A8)
# Assay type: physicochemical
# Measurement context: Table 1 logP / m.p., C18, 43° C., acidic range (pH 2.3)
Give bare numbers.

Known logP results, listed for orientation:
CC1COC(C(F)(F)F)=C(C(=O)Nc2ccccc2-c2ccc(Cl)c(C(F)(F)F)c2)S1 (centres unmarked) [Example 7] :: 4.30
CCCC(C)c1ccccc1NC(=O)C1=C(C(F)(F)F)OCCS1 (centres unmarked) [Example 39] :: 3.63
CC1COC(C(F)(F)F)=C(C(=O)Nc2ccccc2-c2ccc(Cl)c(Cl)c2)S1 (centres unmarked) [Example 6] :: 4.26
CC(=CC(C)C)c1ccccc1NC(=O)C1=C(C(F)(F)F)OCCS1 [Example 89] :: 4.32
CC1CSC(C(=O)Nc2ccccc2-c2ccc(C(F)(F)F)c(F)c2)=C(C(F)(F)F)O1 (centres unmarked) [Example 71] :: 4.08

Answer for every listed entry: what is its logP? The entries follow.
1. CC(=O)N(C(=O)C1=C(C(F)(F)F)OCCS1)c1ccccc1C(C)CC(C)C (centres unmarked) [Example 99]
2. O=C(Nc1ccccc1-c1ccc(Cl)c(C(F)(F)F)c1)C1=C(C(F)(F)F)OCCS1 [Example 30]
3. CON=C(c1ccc(-c2ccccc2NC(=O)C2=C(C(F)(F)F)OCCS2)cc1)C(F)(F)F [Example 100]

Result:
[4.56, 4.03, 2.53]

###

# Tested on: Venturia inaequalis
# Experiment description: Venturia test (apple)/protective
# Type: in vivo
# Measurement context: 240 h, apple plants, protective, application rate 100 g/ha, evaluation 10 days after inoculation, read-out: % efficacy
Measurement label: pest or weed control at 100 g/ha (%)
One number for each entry, in %.

Known pest or weed control at 100 g/ha results, listed for orientation:
CCCO/N=C/c1ccc(-c2ccccc2NC(=O)C2=C(C(F)(F)F)OCCS2)cc1 :: 100
CC(CC(C)(C)C)c1ccccc1NC(=O)C1=C(C(F)(F)F)OCCS1 (stereo not drawn) :: 98

Entry `O=C(Nc1ccc(F)cc1-c1ccc(Cl)c(Cl)c1)C1=C(C(F)(F)F)OCCS1` , pest or weed control at 100 g/ha reported as 100

###

# Experiment description: logP determination by HPLC on reversed-phase column (EEC Directive 79/831 Annex V.A8)
# Type: physicochemical
# Measurement context: Table 1 logP / m.p., C18, 43° C., acidic range (pH 2.3)
Provide the reported logP of each item.
Numbers only.

CCC(C)(C)CC(C)c1ccccc1NC(=O)C1=C(C(F)(F)F)OCCS1 (stereo not shown) [Example 58] :: 4.48

Answer for every listed entry: what is its logP? The entries follow.
1. CCCC(CC(C)C)c1ccccc1NC(=O)C1=C(C(F)(F)F)OCCS1 (stereo not shown) [Example 87]
2. CC1(c2ccccc2NC(=O)C2=C(C(F)(F)F)OCCS2)CC1(Cl)Cl (stereo not shown) [Example 101]
3. CCCON=Cc1ccc(-c2ccccc2NC(=O)C2=C(C(F)(F)F)OC(C)CS2)cc1F (stereo not shown) [Example 68]
4. CCCCCCCCC(C)c1ccccc1NC(=O)C1=C(C(F)(F)F)OCCS1 (stereo not shown) [Example 42]
5. Cc1cc(-c2ccccc2NC(=O)C2=C(C(F)(F)F)OC(C)CS2)ccc1F (stereo not shown) [Example 70]

Result:
4.65
3.66
4.77
5.48
3.99

Answer for every listed entry: what is its logP? The entries follow.
1. O=C(Nc1cc(F)ccc1-c1cc(F)cc(F)c1)C1=C(C(F)(F)F)OCCS1 [Example 75]
2. CC(C)ON=Cc1ccc(-c2ccccc2NC(=O)C2=C(C(F)(F)F)OCC(C)S2)cc1 (stereo not shown) [Example 8]
3. C#CCON=C(C)c1ccc(-c2ccccc2NC(=O)C2=C(C(F)(F)F)OCCS2)cc1 [Example 40]
4. O=C(Nc1ccccc1-c1ccc(Cl)c(Cl)c1)C1=C(C2CC2)OCCS1 [Example 80]
5. CC1CSC(C(=O)Nc2ccccc2-c2ccc(Cl)c(Cl)c2)=C(C(F)(F)F)O1 (stereo not shown) [Example 65]
6. CCCC(CC)c1ccccc1NC(=O)C1=C(C(F)(F)F)OCCS1 (stereo not shown) [Example 77]

Result:
1: 3.70; 2: 4.57; 3: 3.76; 4: 3.53; 5: 4.27; 6: 4.07

Answer for every listed entry: what is its logP? The entries follow.
1. O=C(Nc1ccccc1C1CCCCC1)C1=C(C(F)(F)F)OCCS1 [Example 28]
2. O=C(Nc1ccccc1-c1ccc(Cl)c(Cl)c1)C1=C(C(F)F)OCCS1 [Example 84]
3. CC(CC1CC1(Cl)Cl)c1ccccc1NC(=O)C1=C(C(F)(F)F)OCCS1 (stereo not shown) [Example 55]
4. O=C(Nc1ccccc1-c1ccc(Cl)c(F)c1)C1=C(C(F)(F)F)OCCS1(=O)=O [Example 95]
5. CON=Cc1ccc(-c2ccccc2NC(=O)C2=C(C(F)(F)F)OC(C)CS2)cc1 (stereo not shown) [Example 62]
6. CC1COC(C(F)(F)F)=C(C(=O)Nc2ccccc2C(C)CC(C)(C)C)S1 (stereo not shown) [Example 4]
7. CCC(C)C(C)c1ccccc1NC(=O)C1=C(C(F)(F)F)OCCS1 (stereo not shown) [Example 94]
8. CCCON=Cc1ccc(-c2ccccc2NC(=O)C2=C(C(F)F)OCCS2)cc1F [Example 85]

Result:
3.69
3.92
3.92
3.28
3.81
4.53
3.88
4.52

Answer for every listed entry: what is its logP? The entries follow.
1. CON=C(C)c1ccc(-c2ccccc2NC(=O)C2=C(C(F)(F)F)OCCS2)cc1F [Example 46]
2. O=C(Nc1c(F)cccc1-c1cc(F)cc(F)c1)C1=C(C(F)(F)F)OCCS1 [Example 74]

Result:
1: 3.69; 2: 3.20

Every entry's value here was drawn from patent US7847108B2.
